Kindly state IC50 for each of the entries shown.
- assayedSystem: 15-cis-phytoene desaturase (Synechococcus elongatus (strain PCC 7942) (Anacystis nidulans R2))
- Sequence (P26294 whole entry): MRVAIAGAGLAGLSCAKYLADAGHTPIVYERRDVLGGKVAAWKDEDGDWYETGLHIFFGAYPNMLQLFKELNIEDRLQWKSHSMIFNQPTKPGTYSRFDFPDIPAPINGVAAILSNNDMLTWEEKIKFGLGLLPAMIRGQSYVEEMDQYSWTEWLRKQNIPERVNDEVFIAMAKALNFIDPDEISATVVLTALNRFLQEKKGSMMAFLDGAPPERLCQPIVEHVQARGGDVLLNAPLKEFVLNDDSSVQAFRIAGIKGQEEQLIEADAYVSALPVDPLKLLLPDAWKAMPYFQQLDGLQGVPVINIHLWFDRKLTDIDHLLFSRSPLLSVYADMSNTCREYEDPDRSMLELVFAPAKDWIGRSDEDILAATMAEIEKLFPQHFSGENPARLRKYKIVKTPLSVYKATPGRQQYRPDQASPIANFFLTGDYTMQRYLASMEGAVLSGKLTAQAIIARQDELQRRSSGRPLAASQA
- experimentNotes: Inhibition of Synechococcus PCC 7942 phytoene desaturase expressed in Escherichia coli JM 101 by HPLC analysis
- testParameters: read-out: I50

Consider the compound C[C@H]1CO[C@@H](Cc2cccc(C(F)(F)F)c2)C(=O)N1 . State its measured IC50.
3.8 µM

Consider the compound O=C1NCCOC1Sc1cccc(C(F)(F)F)c1 (racemic) . State its measured IC50.
8.5 µM

Consider the compound O=C1NCCOC1Cc1cccc(C(F)(F)F)c1 (racemic) . State its measured IC50.
6.5 µM

Consider the compound CN1CCOC(Cc2cccc(C(F)(F)F)c2)C1=O (racemic) . State its measured IC50.
> 100 µM

Consider the compound C[C@H]1CO[C@H](Cc2cccc(C(F)(F)F)c2)C(=O)N1 . State its measured IC50.
0.17 µM

Consider the compound CN1CCOC(c2cccc(C(F)(F)F)c2)C1=O (racemic) . State its measured IC50.
> 100 µM

Consider the compound O=C1NCCOC1SCc1cccc(C(F)(F)F)c1 (racemic) . State its measured IC50.
3.2 µM

Consider the compound C[C@@H]1CO[C@@H](Cc2cccc(C(F)(F)F)c2)C(=O)N1 . State its measured IC50.
19 µM

====

- Tested on: Galium aparine
- experimentNotes: Pre-emergence herbicidal activity against Galium aparine after 20 days
- Type: functional
measuredEndpoint: log10 ED50 (log10 of the value in g/ha)
A difference of one corresponds to tenfold ED50; all values are log10 with ED50 in g/ha.

Consider the molecule C[C@H]1CO[C@H](Cc2cccc(C(F)(F)F)c2)C(=O)N1 . State its measured log10 ED50.
2.11

Consider the molecule CN1CCOC(Cc2cccc(C(F)(F)F)c2)C1=O (racemic) . State its measured log10 ED50.
2.70

Consider the molecule C[C@H]1CO[C@@H](Cc2cccc(C(F)(F)F)c2)C(=O)N1 . State its measured log10 ED50.
3.18

Consider the molecule C[C@@H]1CO[C@@H](Cc2cccc(C(F)(F)F)c2)C(=O)N1 . State its measured log10 ED50.
3.60

Consider the molecule O=C1NCCOC1Sc1cccc(C(F)(F)F)c1 (racemic) . State its measured log10 ED50.
3.68

Consider the molecule O=C1NCCOC1Cc1cccc(C(F)(F)F)c1 (racemic) . State its measured log10 ED50.
2.58

====

- Tested on: Abutilon theophrasti
- experimentNotes: Preemergence herbicidal activity against Abutilon theophrasti (velvetleaf) after 20 days
- Assay type: functional
Kindly state log10(ED50) for each of the entries shown.
A difference of one corresponds to tenfold ED50; all values are log10 with ED50 in g/ha.

Consider the compound C[C@H]1CO[C@@H](Cc2cccc(C(F)(F)F)c2)C(=O)N1 . State its measured log10(ED50).
2.70

Consider the compound O=C1NCCOC1Cc1cccc(C(F)(F)F)c1 (racemic) . State its measured log10(ED50).
2.18

Consider the compound CN1CCOC(c2cccc(C(F)(F)F)c2)C1=O (racemic) . State its measured log10(ED50).
3.74

Consider the compound CN1CCOC(Cc2cccc(C(F)(F)F)c2)C1=O (racemic) . State its measured log10(ED50).
3.15

Consider the compound O=C1NCCOC1Sc1cccc(C(F)(F)F)c1 (racemic) . State its measured log10(ED50).
3.00

Consider the compound C[C@H]1CO[C@H](Cc2cccc(C(F)(F)F)c2)C(=O)N1 . State its measured log10(ED50).
1.70

These data points were gathered from ChEMBL document CHEMBL3046936.
